test system: Salm.typh. R 127; assay: agar serial dilution test; assay type: cell-based; conditions: 24 h, 37° C., read-out: minimal inhibitory concentration (MIC)
Listing: MIC of selected compounds

# query: MIC of entry CC1=C(C(=O)O)N2C(=O)[C@@H](NC(=O)Cc3nc(-c4c(Cl)cccc4Cl)no3)[C@H]2SC1 [Example 11E]
> 100 mg/L

# query: MIC of entry `COCc1noc(CC(=O)N[C@@H]2C(=O)N3C(C(=O)O)=C(COC(C)=O)CS[C@H]23)n1`
12.5 mg/L

# query: MIC of entry CC(=O)OCC1=C(C(=O)O)N2C(=O)[C@@H](NC(=O)C(c3ccccc3)c3nc(C)no3)[C@H]2SC1 (stereo partly shown)
> 100 mg/L

In the following, a different compound is considered.
# query: MIC of entry `CC1=C(C(=O)O)N2C(=O)[C@@H](NC(=O)Cc3nc(Cc4ccccc4)no3)[C@H]2SC1`
> 100 mg/L

----------
Listing: MIC of selected molecules
test system: Salm.typh. R 127; assay: agar serial dilution test; assay type: cell-based; details: 24 h, 37° C., read-out: minimal inhibitory concentration (MIC)

Record excerpt, results attached:
# query: MIC of entry CC(=O)OCC1=C(C(=O)O)N2C(=O)[C@@H](NC(=O)Cc3nc(-c4c(Cl)cccc4Cl)no3)[C@H]2SC1 [Example 11C]
> 100 µg/mL

# query: MIC of entry CCc1noc(C(C)C(=O)N[C@@H]2C(=O)N3C(C(=O)O)=C(COC(C)=O)CS[C@H]23)n1 (mixture of isomers) [Example 11K]
> 100 µg/mL

In the following, a different molecule is considered.
# query: MIC of entry Cc1noc(C(C(=O)N[C@@H]2C(=O)N3[C@@H]2SC(C)(C)[C@@H]3C(=O)O)c2ccccc2)n1 (mixture of isomers)
> 100 µg/mL

----------
tested on: Salm.typh. R 127; assay: agar serial dilution test; type: cell-based; details: 24 h, 37° C., read-out: minimal inhibitory concentration (MIC)
measurement_name: log10 MIC (log10 of the value in µg/mL)
Lab note - MIC converted to log10 from values in µg/mL.

Record excerpt, results attached:
Under Salm.typh. R 127: log10 MIC value of COCc1noc(CC(=O)N[C@@H]2C(=O)N3[C@@H]2SC(C)(C)[C@@H]3C(=O)O)n1 [Compound A] ?
1.40

Under Salm.typh. R 127: log10 MIC value of Cc1nc(CC(=O)N[C@@H]2C(=O)N3[C@@H]2SC(C)(C)[C@@H]3C(=O)O)no1 [Example 13] ?
1.40

Under Salm.typh. R 127: log10 MIC value of Cc1noc(CC(=O)N[C@@H]2C(=O)N3[C@@H]2SC(C)(C)[C@@H]3C(=O)O)n1 [Example 11B] ?
1.10

Under Salm.typh. R 127: log10 MIC value of Cc1nc(CC(=O)N[C@@H]2C(=O)N3C(C(=O)O)=C(CN=[N+]=[N-])C[S+]([O-])[C@H]23)no1 (stereo partly drawn) [Example 19] ?
2.00

Under Salm.typh. R 127: log10 MIC value of CCc1noc(CC(=O)N[C@@H]2C(=O)N3C(C(=O)O)=C(COC(C)=O)CS[C@H]23)n1 [Example 11L] ?
0.78

Under Salm.typh. R 127: log10 MIC value of Cc1nnc(SCC2=C(C(=O)O)N3C(=O)[C@@H](NC(=O)Cn4cnnn4)[C@H]3SC2)s1 [Cephazolin, reference compound] ?
0.48

In the following, a different molecule is considered.
Under Salm.typh. R 127: log10 MIC value of COC(=O)C(C(=O)N[C@@H]1C(=O)N2C(C(=O)O)=C(COC(C)=O)CS[C@H]12)c1nc(C)no1 (stereo partly drawn) [Example 38] ?
2.00

----------
test system: Salm.typh. R 127; test: agar serial dilution test; type: cell-based; details: 24 h, 37° C., read-out: minimal inhibitory concentration (MIC)
measurement_name: MIC (µg/mL)
I only need the number, in µg/mL, no unit after it.

Record excerpt, results attached:
# query: MIC of entry C=CCNC(=O)Cc1nc(CC(=O)N[C@@H]2C(=O)N3C(C(=O)O)=C(COC(C)=O)CS[C@H]23)no1 [Example 31]
12.5

# query: MIC of entry CC(=O)OCC1=C(C(=O)O)N2C(=O)[C@@H](NC(=O)C(C)c3nc(C)no3)[C@H]2SC1 (mixture of isomers) [Example 11I]
25

# query: MIC of entry CC(=O)OCC1=C(C(=O)O)N2C(=O)[C@@H](NC(=O)Cc3noc(C)n3)[C@H]2SC1 [Example 11D]
12.5

# query: MIC of entry CCc1noc(CC(=O)N[C@@H]2C(=O)N3[C@@H]2SC(C)(C)[C@@H]3C(=O)O)n1 [Example 11G]
25

# query: MIC of entry Cc1noc(C(C)C(=O)N[C@@H]2C(=O)N3[C@@H]2SC(C)(C)[C@@H]3C(=O)O)n1 (mixture of isomers) [Example 11H]
100

New cases:
# query: MIC of entry Cc1nc(CC(=O)N[C@@H]2C(=O)N3C(C(=O)O)=C(CN=[N+]=[N-])CS[C@H]23)no1 [Example 18]
12.5

----------
test: blood and urine contents after intramuscular administration in rabbits; format: in vivo, rabbits "Nieuw Zeelander"; details: rabbit, urine, im; after 24 hr, intramuscular 50 mg/kg; read-out: Secretion of compound in urine in % of the administered dose
measurement_name: dose excreted at 24 h
Include the unit right after the number.

# query: dose excreted at 24 h of entry `Cc1noc(CC(=O)N[C@@H]2C(=O)N3C(C(=O)O)=C(CSc4nnnn4C)CS[C@H]23)n1`
55.5%

In the following, a different molecule is considered.
# query: dose excreted at 24 h of entry `CC(=O)OCC1=C(C(=O)O)N2C(=O)[C@@H](NC(=O)Cc3nc(CC(=O)O)no3)[C@H]2SC1`
51.4%

----------
system: Strep.haem. A 266; experiment: agar serial dilution test; assay type: cell-based, Streptococcus haemolyticus; details: Streptococcus; agar serial dilution, 24 hours, 37° C.; read-out: minimal inhibitory concentration (MIC)
measurement_name: MIC (µg/mL)
I only need the number, in µg/mL, no unit after it.

# query: MIC of entry CC(=O)OCC1=C(C(=O)O)N2C(=O)[C@@H](NC(=O)Cc3noc(Cc4ccccc4)n3)[C@H]2SC1 [Compound C]
0.5

In the following, a different molecule is considered.
# query: MIC of entry Cc1nc(CC(=O)N[C@@H]2C(=O)N3C(C(=O)O)=C(CN=[N+]=[N-])C[S+]([O-])[C@H]23)no1 (some centres unmarked) [Example 19]
0.5

----------
tested on: Prot.morg. 2241; assay: agar serial dilution test; type: cell-based; conditions: 24 h, agar serial dilution, 24 hours, 37° C.; read-out: minimal inhibitory concentration (MIC)
Listing: MIC of selected molecules

Record excerpt, results attached:
# query: MIC of entry Cc1nc(CC(=O)N[C@@H]2C(=O)N3C(C(=O)O)=C(CN=[N+]=[N-])C[S+]([O-])[C@H]23)no1 (stereo partly shown) [Example 19]
> 100 µg/mL

# query: MIC of entry CC(=O)OCC1=C(C(=O)O)N2C(=O)[C@@H](NC(=O)Cc3nc(C)no3)[C@H]2SC1 [Compound D]
> 100 µg/mL

# query: MIC of entry Cc1nnc(SCC2=C(C(=O)O)N3C(=O)[C@@H](NC(=O)Cn4cnnn4)[C@H]3SC2)s1 [Cephazolin, reference compound]
25 µg/mL

# query: MIC of entry Cc1noc(CC(=O)N[C@@H]2C(=O)N3[C@@H]2SC(C)(C)[C@@H]3C(=O)O)n1 [Example 11B]
> 100 µg/mL

# query: MIC of entry COCc1noc(CC(=O)N[C@@H]2C(=O)N3[C@@H]2SC(C)(C)[C@@H]3C(=O)O)n1 [Compound A]
> 100 µg/mL

# query: MIC of entry Cc1nc(CC(=O)N[C@@H]2C(=O)N3C(C(=O)O)=C(CSc4nnnn4C)CS[C@H]23)no1 [41 B]
100 µg/mL

New cases:
# query: MIC of entry Cc1nc(CC(=O)N[C@@H]2C(=O)N3C(C(=O)O)=C(CN=[N+]=[N-])CS[C@H]23)no1 [Example 18]
> 100 µg/mL

# query: MIC of entry CC1=C(C(=O)O)N2C(=O)[C@@H](NC(=O)Cc3nc(Cc4ccccc4)no3)[C@H]2SC1 [Example 7]
> 100 µg/mL

# query: MIC of entry COCc1noc(CC(=O)N[C@@H]2C(=O)N3C(C(=O)O)=C(COC(C)=O)CS[C@H]23)n1 [Example 37]
> 100 µg/mL

# query: MIC of entry Cc1noc(C(C(=O)N[C@@H]2C(=O)N3[C@@H]2SC(C)(C)[C@@H]3C(=O)O)c2ccccc2)n1 (mixture of isomers) [Example 6]
> 100 µg/mL

# query: MIC of entry C=CCNC(=O)Cc1nc(CC(=O)N[C@@H]2C(=O)N3C(C(=O)O)=C(COC(C)=O)CS[C@H]23)no1 [Example 31]
> 100 µg/mL

# query: MIC of entry CC(=O)OCC1=C(C(=O)O)N2C(=O)[C@@H](NC(=O)Cc3cccs3)[C@H]2SC1 [Cephalotin, reference compound]
> 100 µg/mL

# query: MIC of entry Cc1noc(C(C)C(=O)N[C@@H]2C(=O)N3[C@@H]2SC(C)(C)[C@@H]3C(=O)O)n1 (mixture of isomers) [Example 11H]
> 100 µg/mL

# query: MIC of entry CC(=O)OCC1=C(C(=O)O)N2C(=O)[C@@H](NC(=O)Cc3nc(-c4c(C)cc(C)cc4C)no3)[C@H]2SC1 [Example 9]
> 100 µg/mL

# query: MIC of entry CC1=C(C(=O)O)N2C(=O)[C@@H](NC(=O)Cc3nc(-c4c(Cl)cccc4Cl)no3)[C@H]2SC1 [Example 11E]
> 100 µg/mL

# query: MIC of entry CC(=O)OCC1=C(C(=O)O)N2C(=O)[C@@H](NC(=O)C(C)c3nc(C)no3)[C@H]2SC1 (mixture of isomers) [Example 11I]
> 100 µg/mL
